Parameter pKa: see the listing below.
experiment: pKa values was measured by spectrophotometric method; type: physicochemical

sampleSmiles: CCCNC(=O)Cn1cccc(O)c1=O
pKa: 8.75

Below: the item to evaluate.
For the compound shown here, `O=C(Cn1cccc(O)c1=O)NCCN(CCNC(=O)Cn1cccc(O)c1=O)CCNC(=O)Cn1cccc(O)c1=O` , give the reported pKa.
8.7

----------
test: pKa values were measured by spectrophotometric method; type: physicochemical
parameterMeasured: pKa

For the compound shown here, `CCn1cccc(O)c1=O` , give the reported pKa.
8.99

----------
test: Distribution coefficient was measured at an aqueous phase buffered at pH 7.4 and octanol; type: physicochemical; settings: octanol/water
// thresholds for Distribution coefficient classes: lowest: < 0.2; middle: ≥ 0.2 and < 2; highest: ≥ 2

Take a look at these entries with their results.
sampleSmiles: CC(=O)N(O)CCCCCNC(=O)CCC(=O)N(O)CCCCCNC(=O)CCC(=O)N(O)CCCCCN
class: lowest
//
sampleSmiles: CCn1cccc(O)c1=O
class: middle
//
sampleSmiles: CC(C)n1cccc(O)c1=O
class: highest

Which class holds `O=C(Cn1cccc(O)c1=O)NCCN(CCNC(=O)Cn1cccc(O)c1=O)CCNC(=O)Cn1cccc(O)c1=O` ?
lowest

Which class holds `CC(C)NC(=O)Cn1cccc(O)c1=O` ?
middle

Which class holds `CCCCn1cccc(O)c1=O` ?
highest

Which class holds `CCCn1cccc(O)c1=O` ?
highest

Which class holds `CNC(=O)Cn1cccc(O)c1=O` ?
lowest

Which class holds `CCCNC(=O)Cn1cccc(O)c1=O` ?
middle

Which class holds `CCNC(=O)Cn1cccc(O)c1=O` ?
lowest

Which class holds `CCCCNC(=O)Cn1cccc(O)c1=O` ?
highest

Which class holds `Cn1cccc(O)c1=O` ?
middle

----------
assay: Distribution coefficient and iron(III) complex was measured at an aqueous phase buffered at pH 7.4 and octanol; assay type: physicochemical; details: octanol/water
parameterMeasured: Distribution coefficient
Form: value (number only, do not type unit).

In the examples that follow, each entry is paired with its recorded Distribution coefficient.
sampleSmiles: CCCCNC(=O)Cn1cccc(O)c1=O
Distribution coefficient: 3.74

sampleSmiles: CCNC(=O)Cn1cccc(O)c1=O
Distribution coefficient: 0.035

sampleSmiles: CCCn1cccc(O)c1=O
Distribution coefficient: 24.6

sampleSmiles: CCn1cccc(O)c1=O
Distribution coefficient: 1.67

sampleSmiles: CC(C)NC(=O)Cn1cccc(O)c1=O
Distribution coefficient: 0.11

sampleSmiles: CNC(=O)Cn1cccc(O)c1=O
Distribution coefficient: 0.001

For the molecule shown here, `O=C(Cn1cccc(O)c1=O)NCCN(CCNC(=O)Cn1cccc(O)c1=O)CCNC(=O)Cn1cccc(O)c1=O` , give the reported Distribution coefficient.
0.008

For the molecule shown here, `Cn1cccc(O)c1=O` , give the reported Distribution coefficient.
0.12

----------
assay: Distribution coefficient and iron(III) complex was measured at an aqueous phase buffered at pH 7.4 and octanol; format: physicochemical; details: octanol/water
parameterMeasured: Distribution coefficient
Form: value (number only, do not type unit).

In the examples that follow, each entry is paired with its recorded Distribution coefficient.
sampleSmiles: CC(C)n1cccc(O)c1=O
parameterMeasured: Distribution coefficient
measuredResult: 234
//
sampleSmiles: CC(=O)N(O)CCCCCNC(=O)CCC(=O)N(O)CCCCCNC(=O)CCC(=O)N(O)CCCCCN
parameterMeasured: Distribution coefficient
measuredResult: 0.03

Below: the item to evaluate.
For the compound shown here, `CCCNC(=O)Cn1cccc(O)c1=O` , give the reported Distribution coefficient.
0.35
